Where these numbers come from: paper PMC9784874

In this section, each of the molecules is paired with its reported HIV-1 PR Inhi% at 1000.0 µg/mL.
Biological target: HIV-1 PR (Human immunodeficiency virus type 1 group M subtype B)
Construct: 10.0, 4.0, 3.2 and 17.0 µg/mL against HIV-1 protease
Assay: Fluorimetric HIV-1 protease inhibition assay
Assay type: biochemical
Settings: 1000.0 µg/mL, n = 3
Phrase the answer as number then unit, nothing more needed.

Worked cases, HIV-1 PR Inhi% at 1000.0 µg/mL given:
Cc1cc(O)c2c(=O)c3c(O)cc(O)c4c5c(O)cc(O)c6c(=O)c7c(O)cc(C)c8c1c2c(c34)c(c78)c65    100.0 ± 7.87%
Oc1cc(O)c2c(c1)O[C@H](c1ccc(O)c(O)c1)[C@H](O)C2 [Epicatechin]    66.0 ± 3.79%
C[C@@H]1O[C@@H](OC[C@H]2O[C@@H](Oc3c(-c4ccc(O)c(O)c4)oc4cc(O)cc(O)c4c3=O)[C@H](O)[C@@H](O)[C@@H]2O)[C@H](O)[C@H](O)[C@H]1O    24.8 ± 3.85%
O=C(/C=C/c1ccc(O)cc1)c1c(O)cc(O)cc1O    100.0 ± 1.96%
C[C@@H]1O[C@@H](Oc2cc(O)c3c(c2)O[C@H](c2ccc(O)c(O)c2)[C@@H](O)C3=O)[C@H](O)[C@H](O)[C@H]1O [Taxifolin-7-O-rhamnoside]    68.4 ± 5.45%

Which HIV-1 PR Inhi% at 1000.0 µg/mL is listed for `O=c1c(O)c(-c2ccc(O)c(O)c2)oc2cc(O)cc(O)c12` ? 50.3 ± 1.40%

// returns reported HIV-1 PR Inhi% at 1000.0 µg/mL for input O=c1c(O[C@@H]2O[C@H](CO)[C@H](O)[C@H](O)[C@H]2O)c(-c2ccc(O)c(O)c2)oc2cc(O)cc(O)c12 [Hyperoside] 72.6 ± 1.40%

Which HIV-1 PR Inhi% at 1000.0 µg/mL reading was recorded for the molecule `C[C@@H]1O[C@@H](Oc2c(-c3ccc(O)c(O)c3)oc3cc(O)cc(O)c3c2=O)[C@H](O)[C@H](O)[C@H]1O` ? 94.4 ± 7.86%

Given the molecule `O=C1C[C@@H](c2ccc(O)c(O)c2)Oc2cc(O)cc(O)c21` , what is its reported HIV-1 PR Inhi% at 1000.0 µg/mL? 100.0 ± 4.98%

* * *

Biological target: HIV-1 PR (Human immunodeficiency virus type 1 group M subtype B)
Construct: 10.0, 4.0, 3.2 and 17.0 µg/mL against HIV-1 protease
Assay: Fluorimetric HIV-1 protease inhibition assay
Format: biochemical
Details: active compounds, n = 3; read-out: HIV-1 PR IC50 (converted)
Examples of compounds with documented IC50 follow.
Write the number in µM without appending the unit.

// solved cases for IC50 follow
C[C@@H]1O[C@@H](Oc2c(-c3ccc(O)c(O)c3)oc3cc(O)cc(O)c3c2=O)[C@H](O)[C@H](O)[C@H]1O [Quercitrin]    44.6
C[C@@H]1O[C@@H](Oc2cc(O)c3c(c2)O[C@H](c2ccc(O)c(O)c2)[C@@H](O)C3=O)[C@H](O)[C@H](O)[C@H]1O [Taxifolin-7-O-rhamnoside]    1220
O=C(/C=C/c1ccc(O)cc1)c1c(O)cc(O)cc1O [Naringenin chalcone]    121

Now look at this entry.
So what IC50 did Oc1cc(O)c2c(c1)O[C@H](c1ccc(O)c(O)c1)[C@H](O)C2 [Epicatechin] get with HIV-1 PR (Human immunodeficiency virus type 1 group M subtype B)? 2760

* * *

Measured IC50 accompanies every entry in the list below.
Molecular target: HIV-1 PR (Human immunodeficiency virus type 1 group M subtype B, UniProt P04585)
Construct: 10.0, 4.0, 3.2 and 17.0 µg/mL against HIV-1 protease
Test: Fluorimetric HIV-1 protease inhibition assay
Assay type: biochemical
Description: The inhibitory activities against HIV-1, Cat L and Renin PRs were assayed by fluorimetric methods using our previously published protocols.
Express it in µM; write the number only.

O=C1C[C@@H](c2ccc(O)c(O)c2)Oc2cc(O)cc(O)c21    659
Cc1cc(O)c2c(=O)c3c(O)cc(O)c4c5c(O)cc(O)c6c(=O)c7c(O)cc(C)c8c1c2c(c34)c(c78)c65    3.57

IC50 lookup needed for O=c1c(O[C@@H]2O[C@H](CO)[C@H](O)[C@H](O)[C@H]2O)c(-c2ccc(O)c(O)c2)oc2cc(O)cc(O)c12 [Hyperoside] , thanks. 84

* * *

inhibition at 100 µg/mL values for the compounds below.
Target: UniProt:P07711
Experiment: Fluorimetric cathepsin L protease inhibition assay
Format: biochemical
Settings: 100.0 µg/mL, n = 3; read-out: Cat L PR Inhi% at 100.0 µg/mL
Please provide the amount together with its unit, number first.

Notebook: pull reported inhibition at 100 µg/mL for UniProt:P07711, entry Cc1cc(O)c2c(=O)c3c(O)cc(O)c4c5c(O)cc(O)c6c(=O)c7c(O)cc(C)c8c1c2c(c34)c(c78)c65 [Hypericin] 79.4%

* * *

Overview of reported inhibition at 100 µg/mL across a group of molecules:
Biological target: Cat L PR (Homo sapiens, UniProt P07711)
Sequence (P07711 114-333): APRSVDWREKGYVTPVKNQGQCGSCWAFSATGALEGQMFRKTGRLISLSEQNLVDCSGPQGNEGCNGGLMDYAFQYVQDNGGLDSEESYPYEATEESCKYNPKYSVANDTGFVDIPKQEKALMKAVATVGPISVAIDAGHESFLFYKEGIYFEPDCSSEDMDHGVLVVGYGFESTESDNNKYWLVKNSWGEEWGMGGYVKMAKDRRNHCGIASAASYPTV
Test: Fluorimetric cathepsin L protease inhibition assay
Assay type: biochemical
Settings: 100.0 µg/mL, n = 3; read-out: Cat L PR Inhi% at 100.0 µg/mL
Quick note: give the figure in %, leave out the unit.

// worked examples, inhibition at 100 µg/mL included
O=C(/C=C/c1ccc(O)cc1)c1c(O)cc(O)cc1O [Naringenin chalcone]    22.2
C[C@@H]1O[C@@H](OC[C@H]2O[C@@H](Oc3c(-c4ccc(O)c(O)c4)oc4cc(O)cc(O)c4c3=O)[C@H](O)[C@@H](O)[C@@H]2O)[C@H](O)[C@H](O)[C@H]1O [Rutin]    -4.81
O=c1c(O)c(-c2ccc(O)c(O)c2)oc2cc(O)cc(O)c12 [Quercetin]    -3.67
Oc1cc(O)c2c(c1)O[C@H](c1ccc(O)c(O)c1)[C@H](O)C2 [Epicatechin]    -17.7

Query (molecule): O=C1C[C@@H](c2ccc(O)c(O)c2)Oc2cc(O)cc(O)c21 [Eriodictyol, Eriodicytiol] ; field requested: inhibition at 100 µg/mL 14.3

Request the reported inhibition at 100 µg/mL associated with C[C@@H]1O[C@@H](Oc2cc(O)c3c(c2)O[C@H](c2ccc(O)c(O)c2)[C@@H](O)C3=O)[C@H](O)[C@H](O)[C@H]1O [Taxifolin-7-O-rhamnoside] 18.1

For the molecule shown here, O=c1c(O[C@@H]2O[C@H](CO)[C@H](O)[C@H](O)[C@H]2O)c(-c2ccc(O)c(O)c2)oc2cc(O)cc(O)c12 [Hyperoside] , give the reported inhibition at 100 µg/mL. 11.8
